READOUT TYPE: IC50

What is its IC50 for 5-hydroxytryptamine receptor 2A (Homo sapiens, UniProt P28223)? Entry: COc1cc(/C=C/C(=O)O)cc(OC)c1OC
> 10 µM

###

Protein target, amino acids: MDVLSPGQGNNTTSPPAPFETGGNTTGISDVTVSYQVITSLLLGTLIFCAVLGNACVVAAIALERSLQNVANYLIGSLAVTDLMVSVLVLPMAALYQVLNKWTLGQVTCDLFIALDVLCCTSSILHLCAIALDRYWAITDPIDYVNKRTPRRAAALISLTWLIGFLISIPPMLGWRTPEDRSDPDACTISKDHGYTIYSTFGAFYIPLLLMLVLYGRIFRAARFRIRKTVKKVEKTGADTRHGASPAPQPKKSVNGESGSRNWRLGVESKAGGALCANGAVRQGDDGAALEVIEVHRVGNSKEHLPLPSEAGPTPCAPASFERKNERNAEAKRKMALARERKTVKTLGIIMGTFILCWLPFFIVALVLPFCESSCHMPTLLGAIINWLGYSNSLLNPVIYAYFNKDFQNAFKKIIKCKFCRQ
For each record, write down the corresponding IC50.
# number only, unit µM dropped from output

Quick one: IC50 of CCCCCCCCNC(=O)/C=C/c1cc(OC)c(OC)c(OC)c1 ?
1.2

Quick one: IC50 of CCCCCCNC(=O)/C=C/c1cc(OC)c(OC)c(OC)c1 ?
3.8

Quick one: IC50 of CCCCNC(=O)/C=C/c1cc(OC)c(OC)c(OC)c1 ?
4.9
